Reference for the values: patent US20260207605A1

Kindly supply the reported pIC50 values for the records listed here.
System: HPAC
Test: Anti-proliferative 2D CTG assay, HPAC
Assay type: cell-based
Details: Homo sapiens, 96 h, HPAC cells, 4 days incubation, read-out: HPAC cell IC50
Answers are plain numbers, as −log10 of the molar value.

Sample answers from the record:
COMPOUND	pIC50
C#Cc1c(F)ccc2cc(O)cc(-c3ncc4c(N5C[C@@H]6CC[C@](CC)(C5)N6)nc(OC[C@@]56CCCN5C[C@H](F)C6)nc4c3F)c12 [Positive Compound 2, reference compound]	7.48
[2H]C([2H])([2H])C([2H])([2H])[C@@]12CC[C@@H](CN(c3nc(OC[C@@]45CCCN4C/C(=C\F)C5)nc4c(F)c(-c5ccc(F)c6sc(N)c(C#N)c56)c(Cl)cc34)C1)N2 (single isomer, unassigned)	7.42
C#Cc1c(F)ccc2cc(O)cc(-c3ncc4c(N5CC6CCC(C5)N6)nc(OC[C@@]56CCCN5C[C@H](F)C6)nc4c3F)c12 [Positive Compound 1, reference compound]	7.99
[2H]C([2H])([2H])OC[C@@]12CC[C@@H](CN(c3nc(OC[C@@]45CCCN4C/C(=C\F)C5)nc4c(F)c(-c5cc(O)cc6ccc(F)c(C#C)c56)ncc34)C1)N2	8.01

Next, consider the following compound.
Write down the reported pIC50 of [2H]C([2H])([2H])C([2H])([2H])[C@@]12CC[C@@H](CN(c3nc(OC[C@@]45CCCN4CC(=C)C5)nc4c(F)c(-c5cc(N)cc6ccc(F)c(C#C)c56)ncc34)C1)N2 , test system: HPAC.
7.33
